# reported normalised viability; entries follow
test system: MDA-MB-436; experiment: normalised viability (% of control), CellTiter-Blue; higher = more viable cells (about 100 = DMSO control); conditions: 100 nM; incubation time: 72 h
Give just the number in %; leave the unit off.

See these solved cases before continuing.
[[record]]
compound_structure = "CC1=C(/C=C/C(C)=C/C=C/C(C)=C/C(=O)O)C(C)(C)CCC1"
assay_target = "MDA-MB-436"
reported_endpoint = "normalised viability"
test_result = 99.5

[[record]]
compound_structure = "N#Cc1ccc(C(c2ccc(C#N)cc2)n2cncn2)cc1"
assay_target = "MDA-MB-436"
reported_endpoint = "normalised viability"
test_result = 106


Task item: Given the entry `Cc1ccc(-c2cc(C(F)(F)F)nn2-c2ccc(S(N)(=O)=O)cc2)cc1` , report its measured normalised viability.
Reply: 92.3

Task item: Try the compound `O=C(O)C(=O)O.[NH-][C@@H]1CCCC[C@H]1[NH-].[Pt+2]`
Reply: 96.1

Task item: Another compound to look at: `C1CN1c1nc(N2CC2)nc(N2CC2)n1`
Reply: 105
